target: Oxysterols receptor LXR-beta (Homo sapiens, UniProt P55055); experiment: Binding to human LXRbeta
Sequence (P55055 whole entry): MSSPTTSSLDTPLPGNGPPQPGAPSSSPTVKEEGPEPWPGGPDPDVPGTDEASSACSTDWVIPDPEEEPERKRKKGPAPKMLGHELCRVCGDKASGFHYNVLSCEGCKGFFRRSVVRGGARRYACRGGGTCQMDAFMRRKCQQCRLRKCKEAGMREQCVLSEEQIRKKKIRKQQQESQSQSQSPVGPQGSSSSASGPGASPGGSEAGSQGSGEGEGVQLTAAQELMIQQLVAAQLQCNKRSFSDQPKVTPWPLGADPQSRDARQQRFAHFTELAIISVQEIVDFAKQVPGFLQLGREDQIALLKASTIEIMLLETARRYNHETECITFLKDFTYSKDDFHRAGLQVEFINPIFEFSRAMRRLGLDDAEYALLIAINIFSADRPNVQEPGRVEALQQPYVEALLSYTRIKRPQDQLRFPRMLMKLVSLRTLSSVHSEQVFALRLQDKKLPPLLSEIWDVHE
REPORTED PROPERTY: EC50 (nM)
Provide only the numeric value, understood in nM.

Exercise: Any idea what EC50 was measured for O=C(O)Cc1cccc(OCCCN(Cc2cccc(C(F)(F)F)c2Cl)CC(c2ccccc2)c2ccccc2)c1 ?
Key: 5
